Assay: Toxicity liver stage against HepG2, at 10uM
Format: cell-based
Design: test concentration 10 uM, cell line HepG2-A16-CD81EGFP
Conditions: human, HepG2-A16-CD81EGFP cells; read-out: INHIBITION

Compound | cytotoxicity at 10 µM (%)
COC1CCN(c2ccc(NC(=O)Cn3cccc3)cc2)CC1 | 2.99
Cc1cccc(N2CCN(C(=O)CCc3ccsc3)C(C)C2)n1 (configuration not stated) | 18.4
O=C(NC1CCC1)[C@H]1C[C@H]2CN(CC3CC3)C[C@@H]1O2 | 7.55
Cc1noc(C(C)C)c1C(=O)NS(=O)(=O)c1cccnc1 | 0.345
CCn1cnnc1CNC(=O)NC(c1ccc(OC)cc1)C1CC1 (configuration not stated) | 1.77
CCCC(Nc1c(C#N)c(=O)n(C)c(=O)n1C)c1ccc(F)cc1F (configuration not stated) | -13.2
CN(Cc1ccc(F)cc1)CC1(O)CCN(C(=O)c2ccn(C)n2)C1 (configuration not stated) | -6.41

###

Assay: Toxicity liver stage against HepG2, at 10uM
Assay type: cell-based
Set-up: test concentration 10 uM, cell line HepG2-A16-CD81EGFP
Conditions: human, HepG2-A16-CD81EGFP cells; read-out: INHIBITION
The reader will find reported cytotoxicity at 10 µM values listed item by item below.
Assay metric: cytotoxicity at 10 µM (%)

Compound | Number
Nc1no[n+]([O-])c1C(=O)NCc1ccco1 | 2.94
Cc1cc(C)nc(CN2CCOC(c3ccc(Cl)cc3)C2)n1 (stereo not drawn) | -2.43
CCOc1cncc(N2CCOCC2)n1 | 3.18
Cc1cc(F)cc2c(N3CCS(=O)(=O)CC3)c(C#N)cnc12 | -16.7
CCn1nc(C)c(CN(CCOC)Cc2ccccn2)c1C | 9.77
CC(C)C(=O)N1CCCC12CCCN(C(=O)c1ccno1)C2 (stereo not drawn) | 5.35
COc1cccc(C2CCCN2C(=O)NCCCn2cccn2)c1 (stereo not drawn) | 15.5
Cc1nc(CN2CC[C@H]3[C@H]2CCN3c2nncs2)cs1 | 5.2

###

The reader will find reported cytotoxicity at 10 µM values listed item by item below.
Assay: Toxicity liver stage against HepG2, at 10uM
Assay type: cell-based
Design: test concentration 10 uM, cell line HepG2-A16-CD81EGFP
Details: human, HepG2-A16-CD81EGFP cells; read-out: INHIBITION

Molecule | Units | cytotoxicity at 10 µM
CC1CCN(C(=O)NCCc2cc(F)ccc2F)C1 (stereo not drawn) | % | 0.154
CN(Cc1cnn(C)c1)CC(O)c1ccc2c(c1)OCCCO2 (stereo not drawn) | % | 2.85
CCn1ccnc1CN1CCN(Cc2cnc(C)cn2)CC1C (stereo not drawn) | % | -2.76
Cc1nc(N2CCOCC2)nc2c1CCN(Cc1nccn1C)CC2 | % | -125
Cc1nccn1CCC1CCNCC1 | % | -2.36
Cc1ccc(C(=O)NCc2cc(F)ccc2N2CCCN(C)CC2)o1 | % | -9.7
COc1ccc(NC(=O)NCCCn2nc3ccccn3c2=O)cc1 | % | -13.3
CS(=O)(=O)N1CCC(CNC(=O)C2CCC2)CC1 | % | -2.99
CCC(O)CN(C)Cc1nnc2ccccn12 (stereo not drawn) | % | -26.7
CSCC[C@@H](CO)Nc1ccc(-c2nc(C3CC3)no2)cn1 | % | 0.957
COCC(O)CN1CCC(=O)N(CC=C(C)C)Cc2ccccc21 (stereo not drawn) | % | 1.87
COCC(=O)NCCc1nc2cc(-c3ccc(OC)cc3)ncn2n1 | % | 10.5
CCCc1cc(NCc2noc(COC)n2)n2nccc2n1 | % | 6.48
Cn1ccnc1CN1CCC2(CC(=O)N(c3ccc4c(c3)OCO4)C2)C1 (stereo not drawn) | % | -79.8
CCc1nc(CCNC(=O)NC2CCN(C(C)C)C2)sc1C (stereo not drawn) | % | -7.63
Cc1nc(NC(=O)CN2CCOC(Cn3cccn3)C2)sc1C (stereo not drawn) | % | -8.27
CCOc1nnc(CN2CCOC(CNc3cccnn3)C2)s1 (stereo not drawn) | % | 1.82
Cc1noc(C(C)C)c1C(=O)NCCCN1CCC(C)CC1 | % | -15.9
CC(C)N1CC2(CCC1=O)CCN(C(=O)c1cccc(F)c1F)CC2 | % | -18.5
CCCc1noc(CN(C)Cc2ccc3c(c2)OCO3)n1 | % | -11.1
O=C(c1cccnc1)N1CCC2(CC1)COC(COc1ccccn1)C2 (stereo not drawn) | % | -0.735
Cc1nc2ccccc2nc1CN1CCCC1c1c(C)nn(C)c1C (stereo not drawn) | % | -1.78
COCc1ncc(-c2nccn2CCS(C)(=O)=O)cn1 | % | -17.2
COCCN1CCOCC12CCN(C(=O)Cc1cccs1)CC2 | % | 10.8
COCCOCC(=O)N1CCc2cc(Cl)cc(Cl)c2C1 | % | 1.4
COc1c(CNCC(O)c2ccccc2F)c(C(C)C)nn1C (stereo not drawn) | % | -8.91
CN1CCN(C=C2N=C(c3cc(-c4ccccc4F)n[nH]3)ON2)CC1 | % | -4.92
O=C(c1ccccc1O)N1CCn2c(nnc2C(F)(F)F)C1 | % | 14.6
COc1ccccc1C1(O)CCCN(C(=O)c2ccnn2C(C)C)C1 (stereo not drawn) | % | 2.59
Cc1cnn(CCC(=O)N(CC2CN(C)CCO2)c2nccs2)c1 (stereo not drawn) | % | -5.82
O=C(NCc1ccccc1CO)Nc1ccc2c(c1)CCC2 | % | 3.09
CC(C)COC(C)C(=O)N1CCCCCC1 (stereo not drawn) | % | 1.31
CCc1cc(CN(Cc2cccnc2)C2CN3CCC2CC3)on1 (stereo not drawn) | % | 2.09
O=C(CCO)N1CC[C@@H]2CN(C(=O)c3ccco3)CCO[C@@H]2C1 | % | -72.6
CCn1cc(CN(C)S(=O)(=O)c2ccc(C(C)C)cc2)cn1 | % | 20.1
COc1c2ccc(C(=O)NCCCn3ncccc3=O)cc2nn1C | % | 0.905
CCOCCSc1nnc(Cc2ccccc2F)o1 | % | 8.45
CCN(Cc1cnc(NCc2ccccc2)nc1)C1CCS(=O)(=O)C1 (stereo not drawn) | % | -15.3
